Biological target: Adenosylhomocysteinase (Homo sapiens, UniProt P23526)
Sequence (P23526 whole entry): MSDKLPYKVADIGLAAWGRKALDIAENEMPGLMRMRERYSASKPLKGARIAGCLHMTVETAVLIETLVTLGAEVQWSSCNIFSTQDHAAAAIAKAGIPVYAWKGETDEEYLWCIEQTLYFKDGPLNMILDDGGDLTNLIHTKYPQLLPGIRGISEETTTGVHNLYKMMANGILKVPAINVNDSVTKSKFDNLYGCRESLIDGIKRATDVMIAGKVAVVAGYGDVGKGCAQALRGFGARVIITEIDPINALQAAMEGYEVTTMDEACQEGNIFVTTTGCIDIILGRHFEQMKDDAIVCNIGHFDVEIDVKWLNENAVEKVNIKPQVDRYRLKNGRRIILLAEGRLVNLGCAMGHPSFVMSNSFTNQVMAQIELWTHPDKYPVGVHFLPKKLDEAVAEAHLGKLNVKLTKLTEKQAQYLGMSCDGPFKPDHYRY
test readout: pIC50
pIC50 (log units): -log10 of the concentration in mol/L.

According to the records, this compound Nc1nccc2c1ncn2[C@@H]1O[C@H](CO)[C@@H](O)[C@@H]1O displays pIC50 of 4.00
